Reference source for all entries: ChEMBL document CHEMBL4017471

Give Papp at 5 h, 5 µM for every item shown.
# assay text: Apparent permeability of the compound at 5 uM after 5 hrs by PAMPA
# Format: physicochemical
Give bare numbers, in nm/s.

Cn1cc(-c2ccc(C(=O)N[C@@H]3CCN(c4ncc(Cl)c5c(N)noc45)C3)c(Cl)c2)ccc1=O: 65
Nc1noc2c(N3CC[C@@H](NC(=O)c4ccc(-c5cncnc5)cc4Cl)C3)ncc(Cl)c12: 94
Cn1cc(-c2ccc(C(=O)N[C@@H]3CCN(c4ncc(Cl)c5c(N)noc45)C3)c(Cl)c2)cnc1=O: 7

In the following, a different compound is considered.
For this compound ( Cc1ncn(-c2ccc(C(=O)N[C@@H]3CCN(c4ncc(Cl)c5c(N)noc45)C3)c(Cl)c2)n1 ), measured Papp at 5 h, 5 µM is 116
